# System: T47D human breast carcinoma cells
# assay.name: cells
# Format: cell-based
# settings: agonistic mode, alkaline phosphatase induction (100% = 1 nM Dydrogesterone), compound 100 nM, T47D cells
measured.attribute: PS [100 nM] (% stimulation) (%)
All answers are understood in %, so give the number only.

Exercise: Tell me the measured PS [100 nM] (% stimulation) of CC(=O)[C@H]1CC[C@H]2[C@@H]3C=CC4=CC(=O)CC[C@@]4(C)[C@@H]3C(OC(=O)NCc3ccc4c(c3)OCO4)C[C@]12C (stereo partly drawn) [compound 42] , please.
Key: 76.0

Exercise: Tell me the measured PS [100 nM] (% stimulation) of CC(=O)[C@H]1CC[C@H]2[C@@H]3C=CC4=CC(=O)CC[C@@]4(C)[C@@H]3C(OC(=O)Nc3ccc4c(c3)OCCO4)C[C@]12C (stereo partly drawn) [compound 70] , please.
Key: 1.0

Exercise: Tell me the measured PS [100 nM] (% stimulation) of CC(=O)[C@H]1CC[C@H]2[C@@H]3C=CC4=CC(=O)CC[C@@]4(C)[C@@H]3C(OC(=O)Nc3cccc(-n4cccc4)c3)C[C@]12C (stereo partly drawn) [compound 103] , please.
Key: 21.0
